Experiment: binders of probe aFGF2 on microarray, primary screen, stem cell growth factor project, biochemical, small-molecule microarray, fluorescence 635/667 (AID 1067);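 also: measures binding of biotinylated aFGF2 protein to printed compounds on slides; z-score merges feature fluorescence and signal-to-noise across triplicate slides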
Conditions: higher = more signal
Experimental endpoint: composite z-score

Example entries begin here.
> print(dat)
                                   compound  measured.value
1  COc1ccc([Si](C)(C)[C@@H]2[C@@H](CC(=O)N3Cc4ccccc4C[C@H]3CO)O[C@]3(C(=O)N(C)c4c(Br)cc(C)cc43)[C@H]2C)cc1          -0.083
2  CCOC(=O)C[C@H]1[C@H](OC(=O)Cc2ccc3c(c2)OCO3)[C@@H](NC(=O)c2ccc(-c3ccccc3)cc2)c2cc(OCCCO)ccc2N1C(=O)Cc1ccc(OC)cc1         -0.0636
3  COC(=O)[C@@]1(Cc2ccc(F)cc2)[C@@H]2[C@@H](CC(=O)[C@H]2CC(=O)C(=O)N(C)C)CN1C(=O)c1ccccc1           0.287

Please turn your attention to the following entry.
Reported composite z-score ( N#Cc1ccc(NN2C(C(O)c3c(F)cccc3Cl)C=CC3C(=O)N(c4ccccc4)C(=O)C32)cc1 (centres undefined) ) = 0.199
